system: SKBR3 (PI3Kα-Wild Type) cell line; assay: HTRF phospho-AKT(S473) cell assay in SKBR3 cells; type: cell-based, human; conditions: Homo sapiens, SK-BR-3; SKBR3 (PI3Kα-Wild Type) cells, HTRF phospho-AKT(S473), 2 hours compound incubation, PDGF-BB stimulated
This section presents molecules with their documented IC50 values.

Solved cases (2 shown):
Cc1cc([C@@H](C)Nc2ccc(Cl)nc2C(=O)NS(C)(=O)=O)c2nc(N3CCN(c4ccc(C#N)cn4)[C@@H](C)C3)n(C)c(=O)c2c1 = 1 to 5 µM
Cc1cc([C@@H](C)Nc2ccc(Cl)nc2C(=O)NS(C)(=O)=O)c2nc(N3CCC(c4nc(C(F)F)n(C)n4)CC3)n(C)c(=O)c2c1 = ≥ 5 µM

Which IC50 value belongs to Cc1cc([C@@H](C)Nc2ccc(Cl)nc2C(=O)NS(C)(=O)=O)c2nc(N3CCC(c4nn(C)cc4F)CC3)n(C)c(=O)c2c1 ?
1 to 5 µM

Which IC50 value belongs to Cc1cc([C@@H](C)Nc2ccc(Cl)nc2C(=O)NS(=O)(=O)[C@H]2C[C@@H](O)C2)c2nc(N3Cc4ccc(F)cc4C3)n(C)c(=O)c2c1 (relative stereo) ?
1 to 5 µM

---

tested on: SKBR3 (PI3Kα-Wild Type) cell line; test: HTRF phospho-AKT(S473) cell assay in SKBR3 cells; type: cell-based, human; settings: Homo sapiens, SK-BR-3; HTRF phospho-AKT(S473), SKBR3 (PI3Kα-Wild Type) cells, 2 hours compound incubation, PDGF-BB stimulated
pIC50: −log10 of the molar value.
reported_endpoint: pIC50

Solved cases (2 shown):
Cc1cc([C@@H](C)Nc2ccc(Cl)nc2C(=O)NS(C)(=O)=O)c2nc(N3CCC(n4cc(C#N)cn4)CC3)n(C)c(=O)c2c1 = 6.30 to 6.60
Cc1cc([C@@H](C)Nc2ccc(Cl)nc2C(=O)NS(C)(=O)=O)c2nc(N3CCC[C@@H](c4ncc(Cl)cn4)C3)n(C)c(=O)c2c1 (relative stereo) = ≤ 5.30

Which pIC50 value belongs to Cc1cc([C@@H](C)Nc2ccc(Cl)nc2C(=O)NS(C)(=O)=O)c2nc(N3C[C@H]4C[C@@H]3CN4c3ccc(N)cn3)n(C)c(=O)c2c1 ?
≤ 5.30

---

test system: T47D (PI3Kα-H1047R) cell line; assay: HTRF phospho-AKT(S473) cell assay in T47D cells; type: cell-based, human; conditions: Homo sapiens; HTRF phospho-AKT(S473), T47D (PI3Kα-H1047R) cells, 2 hours compound incubation
pIC50: −log10 of the molar value.
This section presents compounds with their documented pIC50 values.

Solved cases (3 shown):
Cc1cc([C@@H](C)Nc2ccc(Cl)nc2C(=O)NS(C)(=O)=O)c2nc(N3Cc4cccc(-c5cncn5C)c4C3)n(C)c(=O)c2c1 = 6.30 to 6.60
Cc1cc([C@@H](C)Nc2ccc(Cl)nc2C(=O)NS(C)(=O)=O)c2nc(N3CC[C@@H](Nc4ncccn4)C3)n(C)c(=O)c2c1 = > 6.60
Cc1cc([C@@H](C)Nc2ccc(Cl)nc2C(=O)NS(C)(=O)=O)c2nc(-c3ccc4nc(C)nn4c3)n(C)c(=O)c2c1 = 6.00 to 6.30

// fetch T47D (PI3Kα-H1047R) cell line pIC50 for COc1cc(N2CCN(c3nc4c([C@@H](C)Nc5ccc(Cl)nc5C(=O)NS(C)(=O)=O)cc(C)cc4c(=O)n3C)CC2)nc(C)n1
6.30 to 6.60

// fetch T47D (PI3Kα-H1047R) cell line pIC50 for Cc1cc([C@@H](C)Nc2ccc(Cl)nc2C(=O)NS(C)(=O)=O)c2nc(N3CC[C@H](c4cnc(C)c(C#N)c4)C3)n(C)c(=O)c2c1 (single isomer, unassigned) [Compound 655]
5.30 to 6.00
